test: binders of probe aFST on microarray, primary screen, stem cell growth factor project, biochemical, small-molecule microarray, fluorescence 635/667 (AID 1086); settings: higher = more signal;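 further: score merges 667 nm fluorescence with signal-to-noise of each printed compound spot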
property label: composite z-score
Format: numeric value only, no unit, no commentary.

Some solved cases for reference:
compound="COC(=O)[C@H](C)NC(=O)CCC1CC(OC(=O)NCc2cccc3ccccc23)CC2(CCCC(COC(=O)NCC3CCCCC3)O2)O1 (some centres undefined)" endpoint_result=0.715
compound=COCCOC(=O)N1C(=O)[C@@]2(c3cc(C#CC4(O)CCCCCC4)ccc31)[C@H](c1ccc(OCCO)cc1)N1[C@H](c3ccccc3)[C@H](c3ccccc3)OC(=O)[C@H]1[C@@H]2C(=O)NC[C@H](O)c1ccccc1 endpoint_result=0.29
compound="c1ccc(C2NCCc3c2[nH]c2ccccc32)cc1 (centres undefined)" endpoint_result=-0.16

Please report the recorded composite z-score for CCOC(=O)[C@H](Cc1ccccc1)NC(=O)CCC1CC(OC(=O)NCc2ccc3c(c2)OCO3)CC2(CCCC(COC(=O)NCc3ccccc3)O2)O1 (some centres undefined) . 0.393

Please report the recorded composite z-score for CN1C(=O)C2C(C1=O)C1C=C(CCCO)C2C(c2ccc(CN3CCCC3)cc2)N1C (centres undefined) . -0.424

Please report the recorded composite z-score for `C[C@H](c1ccccc1)N1C(=O)[C@H]2[C@H]3[C@H](O)[C@H](O)CC(=O)[C@@H]3CC[C@H]2C1=O` . 0.0924

Please report the recorded composite z-score for `O=C1O[C@@H](c2ccccc2)[C@@H](c2ccccc2)N2[C@@H](c3ccc(OCCO)cc3)[C@]3(C(=O)Nc4ccc(C#CCCO)cc43)[C@@H](C(=O)N3CCCCCCC3)[C@H]12` . 3.04

Please report the recorded composite z-score for `CO[C@@H]1COC(=O)CC=C[C@@H](C)[C@@H]2C=C[C@H](O)[C@@H](COC(=O)CCC[C@H]1C)O2` . 0.246

Please report the recorded composite z-score for `COCC1=C2[C@@H](CCc3ccccc3)OB(O)C[C@@H]2n2c(=O)n(-c3ccccc3)c(=O)n2C1` . -0.373

Please report the recorded composite z-score for `CN1C(=O)[C@@]2(CCC(=O)OC(C)(C)C)N=C(c3ccc(OCCCO)cc3)O[C@H]2c2ccccc21` . 0.183

Please report the recorded composite z-score for `CC(CCC(=O)OC[C@H]1O[C@H](C#Cc2ccccc2)C=C[C@@H]1Oc1ccc(C)cc1)=NOC[C@@H](O)COCc1ccco1` . -1.94

Please report the recorded composite z-score for CCOC(=O)[C@H](Cc1ccccc1)NC(=O)CCC1CC(OC(=O)NCc2ccc3c(c2)OCO3)CC2(CCCC(COC(=O)NCC3CCCCC3)O2)O1 (some centres undefined) . 1.27

Please report the recorded composite z-score for `[N-]=[N+]=NCc1ccccc1C[C@]1(C(=O)NCc2ccccc2)N=C(c2ccc(OCCCO)cc2)O[C@H]1c1ccccc1N=[N+]=[N-]` . 1.16

Please report the recorded composite z-score for `Cn1c(=O)n2n(c1=O)[C@H]1[C@H](O)[C@@H]3O[C@@H]3C(=NOC[C@@H](O)COCc3ccco3)[C@H]1CC2` . 0.0036

Please report the recorded composite z-score for `C[C@@H](c1ccccc1)N1C(=O)[C@H]2[C@H]3[C@H](O)[C@H](O)CC(=NNC(=O)OCc4ccccc4)[C@H]3CC[C@H]2C1=O` . 0.366
